Test system: M. tuberculosis H37Rv growth inhibition with meropenem
Test: dose response, H37Rv, with and without meropenem (AID 434987);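 further: growth over 7 days at 37 °C before Alamar Blue read on day 9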
Details: measured here: IC90 with meropenem
Reported IC90 values for the following compounds.

{"compound": "CCN(CC)S(=O)(=O)c1ccc(N/N=C(\\C)c2ccc(OC)cc2O)nc1", "IC90": "10.4 µM"}
{"compound": "CO/N=C(\\C(=O)N[C@@H]1C(=O)N2C(C(=O)O)=C(COC(C)=O)CS[C@H]12)c1csc(N)n1 (stereo in doubt)", "IC90": "41.7 µM"}
{"compound": "Cc1ccc(C(=O)NN2C(=O)/C(=C/c3cccn3C)SC2=S)cc1", "IC90": "> 100 µM"}
{"compound": "COc1cccc(NC(=S)Nc2cc(C)cc(C)n2)c1", "IC90": "> 100 µM"}
{"compound": "CC(=O)[C@@]1(O)CC[C@H]2[C@@H]3C[C@H](C)C4=CC(=O)CC[C@]4(C)[C@H]3CC[C@@]21C", "IC90": "> 100 µM"}
{"compound": "O=C(C1=C[C@H](c2ccc(Br)cc2)C[C@H](OCc2ccc(CO)cc2)O1)N1CCN(Cc2ccc3c(c2)OCO3)CC1", "IC90": "> 100 µM"}
{"compound": "Cc1cc(NC(=O)COc2nnc(-c3ccccc3)c3ccccc23)no1", "IC90": "> 25 µM"}
{"compound": "Cc1ccc(C)c(CSc2nnc(C)c(=O)n2N)c1", "IC90": "20.4 µM"}
{"compound": "COC(=O)c1cccc(NC(=S)NCCC2=CCCCC2)c1", "IC90": "> 100 µM"}
{"compound": "Cc1ccc(/C=N\\NC(=O)c2csnn2)cc1", "IC90": "> 100 µM"}
{"compound": "O=C(Nc1nnc(-c2ccccc2SCc2ccccc2F)s1)Nc1ccccc1F", "IC90": "> 100 µM"}
{"compound": "N=C1C(c2nc3ccccc3[nH]2)=C(O)CN1c1ccc(F)cc1", "IC90": "> 100 µM"}
{"compound": "Nc1c(Cl)cc(-c2csc(N3CCCC3c3nc4cc(Cl)c(N5CCCCC5)cc4n3CCCO)n2)cc1Cl (stereo unspecified)", "IC90": "> 100 µM"}
{"compound": "CC(C)NC(=S)NN=C1c2ccccc2-c2ccccc21", "IC90": "> 100 µM"}
{"compound": "O=C(CN1CCN(c2ccc(F)cc2)CC1)Nc1ccccc1C(=O)NCCc1ccccc1", "IC90": "> 100 µM"}
{"compound": "C=C1C(=O)O[C@@H]2[C@H]1[C@@H](OC(=O)/C(C)=C/C)C/C(C)=C\\C(=O)/C=C(\\C)[C@@H]2O", "IC90": "25.2 µM"}
{"compound": "O=c1oc(-c2ccco2)nc2sc3c(c12)CCCCC3", "IC90": "38.5 µM"}
{"compound": "CCC(=O)NC(=S)Nc1ccc(NC(=O)c2ccc(C)c([N+](=O)[O-])c2)cc1", "IC90": "> 100 µM"}
{"compound": "N#CC1=C2C=Cc3ccccc3N2CCCC1=O", "IC90": "> 100 µM"}
{"compound": "Cc1cccc(NC(=O)Cn2cnc3c(oc4ccccc43)c2=O)c1C", "IC90": "> 100 µM"}
{"compound": "O=C1Nc2c(ccc(Cl)c2Cl)C(=O)C1(F)c1ccccc1 (stereo unspecified)", "IC90": "71.7 µM"}
